Record form. Attribute: activity change, negative = cytotoxicity. Fill in for each entry.
Experiment: A673 Ewing sarcoma viability loss – cell-based, CellTiter-Glo luminescence, cherry-pick retest, confirmation (AID 720587)
Settings: A673 Ewing sarcoma viability, CellTiter-Glo ATP luminescence, 72 h; at 26 µM (top of the series)
One number for each entry, in %.

Which activity change, negative = cytotoxicity reading was recorded for the molecule "C=CC[n+]1c(-c2ccc(C)cc2)csc1Nc1ccc(NC(C)=O)cc1" ?
-9.93

Repeat for the following molecule: "Cc1cc(Br)ccc1N=C1C(=O)Nc2ccccc21"
-19

Repeat for the following molecule: "O=C1Nc2ccccc2C1=Nc1ccc(Br)cc1"
-3.12

Repeat for the following molecule: "O=C(Nc1ccc(NC(=O)c2cc3ccccc3o2)cc1)c1ccc2c(c1)OCCO2"
7.76

Continuing:
Which activity change, negative = cytotoxicity reading was recorded for the molecule "O=C(O)c1cccc(N/N=C/c2ccc(OC(F)(F)F)cc2)c1" ?
10.4

====

Assay: A673 Ewing sarcoma viability loss – cell-based, CellTiter-Glo luminescence, cherry-pick retest, confirmation (AID 720587)
Conditions: A673 Ewing sarcoma viability, CellTiter-Glo ATP luminescence, 72 h; at 26 µM (top of the series)
OBSERVED PROPERTY: activity change, negative = cytotoxicity (%)
Give bare numbers, in %.

Solved entries:
Which activity change, negative = cytotoxicity reading was recorded for the compound "C[C@H](CO)N1C[C@H](C)[C@H](CN(C)Cc2ccc(C(F)(F)F)cc2)Oc2c(NS(=O)(=O)c3ccc(Cl)cc3)cccc2C1=O" ?
4.37

Repeat for the following compound: "Cc1ccc(NC(=O)CCN2CCCCC2)cc1"
12.4

Repeat for the following compound: "O=C(NC(=O)c1ccccc1)Nc1ccccc1"
-3.17

Each compound below has a recorded value; state its activity change, negative = cytotoxicity.
1. Nc1ccc(-c2cc3ccccc3oc2=O)cc1
2. O=C1CCCC2=C1C(c1ccccn1)Nc1ccc(C(=O)c3ccccc3)cc1N2 (configuration not stated)
3. COc1ccc(C(=O)CN2C(=O)c3ccccc3S2(=O)=O)cc1
4. CCN(CC)C(=O)CN1C(=O)C(=O)c2ccccc21

1. 3.89
2. 3.59
3. 1.43
4. -0.157

====

Test: A673 Ewing sarcoma viability loss – cell-based, CellTiter-Glo luminescence, cherry-pick retest, confirmation (AID 720587)
Details: A673 Ewing sarcoma viability, CellTiter-Glo ATP luminescence, 72 h; at 26 µM (top of the series)
OBSERVED PROPERTY: activity change, negative = cytotoxicity (%)
Numbers only, in %.

Which activity change, negative = cytotoxicity reading was recorded for the compound "Cc1occc1-c1n[nH]c(=S)n1C" ?
1.91

Each compound below has a recorded value; state its activity change, negative = cytotoxicity.
1. O=C(NC1CCCC1)C(c1ccccc1)n1c(CSCCOc2ccccc2)nc2ccccc21 (centres undefined)
2. O=C(COC(=O)c1ccc[nH]c1=O)Nc1ccc(N2CCCCC2)cc1
3. C=CCOC(=O)c1sc(NC(=O)c2ccc(OC)cc2)nc1C

1. -7.19
2. 0.213
3. -13

====

Experiment: A673 Ewing sarcoma viability loss – cell-based, CellTiter-Glo luminescence, cherry-pick retest, confirmation (AID 720587)
Conditions: A673 Ewing sarcoma viability, CellTiter-Glo ATP luminescence, 72 h; at 26 µM (top of the series)
Calls of active or inactive are those of the source.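 How the source made its calls: active means fitted curve reaches -35% activity change at a concentration below twice the top valid dose tested; inactive means the rest, including effects opposite to the expected direction.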
OBSERVED PROPERTY: activity change, negative = cytotoxicity

Which activity change, negative = cytotoxicity reading was recorded for the compound "COc1cc(/C=N/NC(=O)c2csc3c2CCCC3)cc(OC)c1O" ?
0.143% (inactive)

Repeat for the following compound: "COc1ccc(Nc2oc(COc3ccccc3OC)nc2C#N)cc1"
2.48% (inactive)

Repeat for the following compound: "O=C(O)c1ccc(N/N=C/c2c(F)cccc2Cl)cc1"
-4.19% (inactive)

Each compound below has a recorded value; state its activity change, negative = cytotoxicity.
1. COC(=O)C[C@@H]1CC[C@@H]2[C@H](COc3ccc(NC(=O)c4cc(F)cc(F)c4)cc3C(=O)N2C)O1
2. CCc1ccc(/C=C2\SC(=S)N(CCCC(=O)Nc3cc(C)on3)C2=O)cc1
3. C[C@@H]1CN([C@@H](C)CO)S(=O)(=O)c2ccc(C#Cc3ccncc3)cc2O[C@H]1CN(C)C(=O)C1CCOCC1
4. C[C@@H]1CN([C@H](C)CO)C(=O)c2cc(NS(=O)(=O)c3ccc(Cl)cc3)ccc2O[C@@H]1CN(C)Cc1ccc(Cl)c(Cl)c1
5. COc1ccc(C/C(N)=N/OC(C)=O)cc1OC

1: -0.378% (inactive); 2: -3.29% (inactive); 3: -7.5% (inactive); 4: -17.2% (inactive); 5: 0.039% (inactive)

Each compound below has a recorded value; state its activity change, negative = cytotoxicity.
1. COc1ccc(/C=C2\SC(=O)N(CCCC(=O)Nc3ccc(C(=O)O)cc3)C2=O)cc1
2. CCc1c(C(=O)NN2C(=O)C3CCCCC3C2=O)csc1C (stereo unspecified)

1. -0.477% (inactive)
2. -1.99% (inactive)

Each compound below has a recorded value; state its activity change, negative = cytotoxicity.
1. N#C[C@H]1[C@H](c2ccc(C#Cc3ccccc3F)cc2)[C@@H](CO)N1C(=O)C1CCOCC1
2. Cc1cc(-c2nc3cc(F)ccc3s2)ccc1N
3. CCOC(=O)c1c(-c2ccc(C)cc2)csc1NC(=O)CCN1CCOCC1
4. O=C(O)CN1C(=O)/C(=C\c2ccccc2OCc2ccc(Cl)cc2Cl)SC1=S
5. OCCN1CCN(C(=S)c2ccc(-c3ccccc3)cc2)CC1
6. Cc1csc(NC(=O)CCc2c(C)nc3cc(-c4ccc(Cl)cc4)nn3c2C)n1

-1.72% (inactive)
-13.6% (inactive)
3.44% (inactive)
-0.632% (inactive)
6.18% (inactive)
1.02% (inactive)

====

Test: A673 Ewing sarcoma viability loss – cell-based, CellTiter-Glo luminescence, cherry-pick retest, confirmation (AID 720587)
Details: A673 Ewing sarcoma viability, CellTiter-Glo ATP luminescence, 72 h; at 26 µM (top of the series)
OBSERVED PROPERTY: activity change, negative = cytotoxicity (%)
Numbers only, in %.

Solved entries:
Which activity change, negative = cytotoxicity reading was recorded for the compound "O=C(Cc1nn[nH]n1)c1ccccc1O" ?
0.33

Repeat for the following compound: "S=C(NCCN1CCOCC1)Nc1ccccc1Cl"
3

Repeat for the following compound: "C=CCn1c(O)c(N=Nc2ccccc2)c2ccccc21"
7.11

Each compound below has a recorded value; state its activity change, negative = cytotoxicity.
1. CN(C)[C@@H]1CCC[C@@H]1OC(=O)C(c1ccccc1)c1ccccc1
2. COc1ccc(NC(=O)c2cc3ccccc3oc2=O)cc1
3. COc1ccc(C(=O)OCC(=O)Nc2ccc(Cl)c(C(F)(F)F)c2)c(OC)c1OC
4. Cc1nc2cc(-c3ccc(Cl)cc3)nn2c(C)c1CCC(=O)NC(C)c1ccc2c(c1)OCCO2 (stereo unspecified)
5. CCOc1ccc(NC(=O)C(=O)N/N=C\c2ccc(CNS(=O)(=O)c3ccccc3)o2)cc1
6. O=C(O)c1ccc2cc(-c3ccccc3)[nH]c2c1
7. O=C(NCc1ccccn1)c1ccc(CNS(=O)(=O)c2cccc(Cl)c2)cc1
8. COc1ccc2oc(-c3ccccc3)cc(=O)c2c1

1: -2.99; 2: -20.8; 3: 2.74; 4: -6; 5: -1.27; 6: -2.41; 7: 0.155; 8: -12.3

====

Assay: A673 Ewing sarcoma viability loss – cell-based, CellTiter-Glo luminescence, cherry-pick retest, confirmation (AID 720587)
Details: A673 Ewing sarcoma viability, CellTiter-Glo ATP luminescence, 72 h; at 26 µM (top of the series)
Record form. Attribute: activity change, negative = cytotoxicity. Fill in for each entry.
Give bare numbers, in %.

Which activity change, negative = cytotoxicity reading was recorded for the molecule "O=C1C(=O)N(CCS(=O)(=O)c2ccccc2)c2ccccc21" ?
12.4

Repeat for the following molecule: "Cc1ccc(Cc2c(-c3ccco3)nc3c(C)cc(Br)cn23)cc1"
2.77

Repeat for the following molecule: "C/C(=N\Nc1cccc2cccnc12)c1ccccn1"
-0.624

Repeat for the following molecule: "Cc1cc(C(=O)CN2C(=O)c3ccccc3S2(=O)=O)c(C)n1C(C)C"
21.4

Repeat for the following molecule: "Cc1ccc(C(=O)CN2C(=O)c3ccccc3S2(=O)=O)cc1"
11.7

Each molecule below has a recorded value; state its activity change, negative = cytotoxicity.
1. Cc1ccsc1/C=N/Nc1ccc(C(=O)O)cc1
2. Cc1cc(C)cc(OCC(=O)OCC(=O)Nc2cc(S(=O)(=O)N3CCOCC3)ccc2C)c1

[5.43, -2.43]

====

Record form. Attribute: activity change, negative = cytotoxicity. Fill in for each entry.
Experiment: A673 Ewing sarcoma viability loss – cell-based, CellTiter-Glo luminescence, cherry-pick retest, confirmation (AID 720587)
Details: A673 Ewing sarcoma viability, CellTiter-Glo ATP luminescence, 72 h; at 26 µM (top of the series)
Numbers only, in %.

Which activity change, negative = cytotoxicity reading was recorded for the molecule "Cc1noc(C)c1NC(=O)Nc1ccc2c(c1)CC(=O)N([C@@H](C)CO)C[C@@H](C)[C@@H](CN(C)Cc1ccc(Cl)c(Cl)c1)O2" ?
0.825

Repeat for the following molecule: O=C(NCCc1ccccc1)c1ccccc1NC(=O)C1CCCO1 (centres undefined)
0.338

Repeat for the following molecule: "CCCNC(=O)N1[C@H](C#N)[C@H](c2ccc(C#Cc3ccc(F)cc3)cc2)[C@H]1CO"
-13.6

Then there is this molecule:
Which activity change, negative = cytotoxicity reading was recorded for the molecule "Nc1ccc2c(c1)OC1(CCCC1)O2" ?
-14.9
